# subject-of-test: Plk3 (Homo sapiens, UniProt Q9H4B4)
# Sequence (Q9H4B4 whole entry): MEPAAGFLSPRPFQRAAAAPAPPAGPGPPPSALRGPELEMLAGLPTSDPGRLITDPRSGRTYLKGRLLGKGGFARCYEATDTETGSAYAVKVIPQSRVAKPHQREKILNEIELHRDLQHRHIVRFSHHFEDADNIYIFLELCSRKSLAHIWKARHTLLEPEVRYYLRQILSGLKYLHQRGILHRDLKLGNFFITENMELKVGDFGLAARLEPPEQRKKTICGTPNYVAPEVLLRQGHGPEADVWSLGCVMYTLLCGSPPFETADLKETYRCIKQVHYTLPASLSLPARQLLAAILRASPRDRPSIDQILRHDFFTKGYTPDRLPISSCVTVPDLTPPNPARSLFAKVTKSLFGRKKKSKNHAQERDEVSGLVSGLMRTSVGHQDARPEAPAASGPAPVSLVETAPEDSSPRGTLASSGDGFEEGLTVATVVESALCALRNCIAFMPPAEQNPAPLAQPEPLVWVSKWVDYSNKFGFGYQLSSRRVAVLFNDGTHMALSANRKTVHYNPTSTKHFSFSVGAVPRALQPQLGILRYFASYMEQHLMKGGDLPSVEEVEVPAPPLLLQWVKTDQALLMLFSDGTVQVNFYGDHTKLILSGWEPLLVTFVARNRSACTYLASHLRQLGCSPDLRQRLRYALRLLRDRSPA
pIC50: −log10 of the molar value.
readout-label: pIC50

Lookup: Look up pIC50 for this compound: CC(C)CCN[C@@H]1CCc2cc(O)c(N3CC(=O)NS3(=O)=O)c(F)c2C1
Found: < 5.00

---

# subject-of-test: TEC (Homo sapiens, UniProt P42680)
# Sequence (P42680 1-631): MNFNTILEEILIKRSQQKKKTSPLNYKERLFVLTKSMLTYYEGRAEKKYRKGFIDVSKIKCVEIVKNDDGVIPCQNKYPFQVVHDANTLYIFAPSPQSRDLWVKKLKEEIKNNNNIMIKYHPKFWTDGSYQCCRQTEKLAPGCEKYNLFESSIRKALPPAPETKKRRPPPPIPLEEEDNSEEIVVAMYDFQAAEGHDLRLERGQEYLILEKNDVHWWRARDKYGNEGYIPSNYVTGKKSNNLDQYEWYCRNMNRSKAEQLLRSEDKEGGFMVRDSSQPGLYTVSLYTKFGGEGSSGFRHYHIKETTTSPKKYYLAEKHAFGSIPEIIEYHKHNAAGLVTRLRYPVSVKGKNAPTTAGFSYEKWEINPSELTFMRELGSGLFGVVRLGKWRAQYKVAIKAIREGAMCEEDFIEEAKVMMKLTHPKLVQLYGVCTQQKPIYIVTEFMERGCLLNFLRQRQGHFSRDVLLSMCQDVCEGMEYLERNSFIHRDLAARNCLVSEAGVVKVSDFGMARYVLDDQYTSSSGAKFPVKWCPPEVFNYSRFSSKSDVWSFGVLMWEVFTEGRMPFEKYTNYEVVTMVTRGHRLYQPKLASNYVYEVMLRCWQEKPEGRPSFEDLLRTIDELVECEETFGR
readout-label: IC50

Lookup: Look up IC50 for this compound: CC(C)CCN[C@@H]1CCc2cc(O)c(N3CC(=O)NS3(=O)=O)c(F)c2C1
Found: > 10 µM

---

# subject-of-test: PTPN1 (Homo sapiens)
# Construct: full-length recombinant
# Sequence (P18031 whole entry): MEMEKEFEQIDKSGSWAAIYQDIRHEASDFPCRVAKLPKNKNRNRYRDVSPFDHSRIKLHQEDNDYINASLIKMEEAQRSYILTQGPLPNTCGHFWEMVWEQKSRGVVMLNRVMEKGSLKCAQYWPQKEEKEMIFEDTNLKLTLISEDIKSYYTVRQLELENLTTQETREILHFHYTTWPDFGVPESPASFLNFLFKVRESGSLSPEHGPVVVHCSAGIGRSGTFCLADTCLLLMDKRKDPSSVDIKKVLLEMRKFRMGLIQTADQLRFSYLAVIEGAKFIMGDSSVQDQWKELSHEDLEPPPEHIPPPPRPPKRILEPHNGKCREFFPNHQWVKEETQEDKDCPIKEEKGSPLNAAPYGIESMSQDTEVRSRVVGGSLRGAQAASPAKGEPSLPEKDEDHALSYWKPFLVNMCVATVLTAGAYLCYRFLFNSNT
# assay-protocol: mobility shift enzyme assay with labelled insulin receptor phosphopeptide (crystal with PTPN1 mentioned, data not shown)
# Format: biochemical
readout-label: IC50 (nM)
Write down the numeric answer in nM and omit the unit.

Lookup: Look up IC50 for this compound: CC(C)CCN[C@@H]1CCc2cc(O)c(N3CC(=O)NS3(=O)=O)c(F)c2C1
Found: 2.5

---

# subject-of-test: MEK1 (Homo sapiens, UniProt Q02750)
# Sequence (Q02750 whole entry): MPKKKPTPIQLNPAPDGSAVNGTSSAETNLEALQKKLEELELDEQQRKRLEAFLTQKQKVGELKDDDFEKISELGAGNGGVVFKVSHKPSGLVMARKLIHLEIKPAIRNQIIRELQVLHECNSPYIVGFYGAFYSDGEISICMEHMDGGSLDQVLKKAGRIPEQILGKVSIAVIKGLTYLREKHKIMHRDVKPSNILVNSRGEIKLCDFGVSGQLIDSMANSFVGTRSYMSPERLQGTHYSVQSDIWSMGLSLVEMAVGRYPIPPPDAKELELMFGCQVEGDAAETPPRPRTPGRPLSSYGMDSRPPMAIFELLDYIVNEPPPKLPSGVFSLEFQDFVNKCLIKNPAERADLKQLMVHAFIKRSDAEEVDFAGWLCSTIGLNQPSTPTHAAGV
readout-label: IC50

Lookup: Look up IC50 for this compound: CC(C)CCN[C@@H]1CCc2cc(O)c(N3CC(=O)NS3(=O)=O)c(F)c2C1 [AC484, ABBV-CLS-484]
Found: > 10 µM

---

Target protein (sequence): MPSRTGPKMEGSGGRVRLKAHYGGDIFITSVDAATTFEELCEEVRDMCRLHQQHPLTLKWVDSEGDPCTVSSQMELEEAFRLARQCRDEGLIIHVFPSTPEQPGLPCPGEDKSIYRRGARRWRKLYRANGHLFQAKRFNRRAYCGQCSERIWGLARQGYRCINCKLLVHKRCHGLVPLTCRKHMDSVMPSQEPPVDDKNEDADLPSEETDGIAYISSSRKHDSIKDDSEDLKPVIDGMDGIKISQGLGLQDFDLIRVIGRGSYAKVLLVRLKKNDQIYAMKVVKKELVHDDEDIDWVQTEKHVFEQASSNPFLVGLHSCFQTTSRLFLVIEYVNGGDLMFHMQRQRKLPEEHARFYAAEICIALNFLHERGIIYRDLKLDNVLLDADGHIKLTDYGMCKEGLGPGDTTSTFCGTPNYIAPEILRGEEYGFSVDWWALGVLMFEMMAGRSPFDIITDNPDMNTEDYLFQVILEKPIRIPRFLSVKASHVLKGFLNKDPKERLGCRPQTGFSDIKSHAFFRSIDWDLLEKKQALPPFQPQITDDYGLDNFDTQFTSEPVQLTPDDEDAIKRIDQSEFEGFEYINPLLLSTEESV
readout-label: IC50

Lookup: Look up IC50 for this compound: CC(C)CCN[C@@H]1CCc2cc(O)c(N3CC(=O)NS3(=O)=O)c(F)c2C1
Found: > 10 µM
